PROCEDURE_TEXT: Cytotoxicity against human HuH7 cells after 4 hrs by CellTitre-Blue assay
Type: cell-based, Huh-7
Answer each item with its documented CC50 at 4 h.
Give bare numbers, in µM.

>>> assay_result("COc1ccc2c(c1)[C@@H]1C[C@]1(C(=O)N1CC34CCC3(CN(C(=O)N(C)C)C4)C1)Cn1c-2c(C2CCCCC2)c2ccc(C(=O)NS(=O)(=O)C(C)C)cc21 (stereo partly drawn)")
16

Please go through the list and note CC50 at 4 h for each molecule.
1. COc1ccc2c(c1)[C@@H]1C[C@]1(C(=O)N1CC34CCC3(CN(C(=O)N3CCOCC3)C4)C1)Cn1c-2c(C2CCCCC2)c2ccc(C(=O)NS(=O)(=O)N(C)C)cc21 (stereo partly drawn)
2. COc1ccc2c(c1)[C@@H]1C[C@]1(C(=O)N1[C@@H]3CC[C@H]1CN(C)C3)Cn1c-2c(C2CCCCC2)c2ccc(C(=O)NS(=O)(=O)N(C)C)cc21 [BECLABUVIR]

Reply:
1: 21; 2: 16

----------
Answer each item with its documented CC50 at 4 h.
PROCEDURE_TEXT: Cytotoxicity against human HuH7 cells after 4 hrs by CellTitre-Blue assay
Format: cell-based, Huh-7
One number for each entry, in µM.

Some compounds with known CC50 at 4 h results, for comparison:
>>> assay_result("COc1ccc2c(c1)[C@@H]1C[C@]1(C(=O)N1CC34CCC3(CN(C(=O)N(C(C)C)C(C)C)C4)C1)Cn1c-2c(C2CCCCC2)c2ccc(C(=O)NS(=O)(=O)N(C)C)cc21 (stereo not given in full)")
7
>>> assay_result("CNC(=O)N1CC23CCC2(C1)CN(C(=O)[C@]12C[C@H]1c1cc(OC)ccc1-c1c(C4CCCCC4)c4ccc(C(=O)NS(=O)(=O)C(C)C)cc4n1C2)C3 (stereo not given in full)")
72
>>> assay_result("COc1ccc2c(c1)[C@@H]1C[C@]1(C(=O)N1CC34CCC3(C1)CN(S(=O)(=O)C(C)C)C4)Cn1c-2c(C2CCCCC2)c2ccc(C(=O)NS(=O)(=O)C(C)C)cc21 (stereo not given in full)")
10
>>> assay_result("CNC(=O)N1CC23COCC2(C1)CN(C(=O)[C@]12C[C@H]1c1cc(OC)ccc1-c1c(C4CCCCC4)c4ccc(C(=O)NS(=O)(=O)N(C)C)cc4n1C2)C3 (stereo not given in full)")
96

Please go through the list and note CC50 at 4 h for each compound.
1. COC(=O)N1CC23COCC2(C1)CN(C(=O)[C@]12C[C@H]1c1cc(OC)ccc1-c1c(C4CCCCC4)c4ccc(C(=O)NS(=O)(=O)C(C)C)cc4n1C2)C3 (stereo not given in full)
2. COc1ccc2c(c1)[C@@H]1C[C@]1(C(=O)N1CC34CCC3(C1)CN(C1CC1)C4)Cn1c-2c(C2CCCCC2)c2ccc(C(=O)NS(=O)(=O)N(C)C)cc21 (stereo not given in full)
3. COc1ccc2c(c1)[C@@H]1C[C@]1(C(=O)N1CC34CCC3(C1)CN(C1CC1)C4)Cn1c-2c(C2CCCCC2)c2ccc(C(=O)NS(=O)(=O)C(C)C)cc21 (stereo not given in full)
4. COc1ccc2c(c1)[C@@H]1C[C@]1(C(=O)N1CC34CN(C)CC3(CN(C)C4)C1)Cn1c-2c(C2CCCCC2)c2ccc(C(=O)NS(=O)(=O)C(C)C)cc21 (stereo not given in full)
5. COc1ccc2c(c1)[C@@H]1C[C@]1(C(=O)N1CC34CCC3(CN(C)C4)C1)Cn1c-2c(C2CCCCC2)c2ccc(C(=O)NS(=O)(=O)C(C)C)cc21 (stereo not given in full)

Reply:
[5, 5, 18, 43, 21]
